# system-under-test: human plasmin (Homo sapiens, UniProt P00747)
# Sequence (P00747 581-810 limits assumed): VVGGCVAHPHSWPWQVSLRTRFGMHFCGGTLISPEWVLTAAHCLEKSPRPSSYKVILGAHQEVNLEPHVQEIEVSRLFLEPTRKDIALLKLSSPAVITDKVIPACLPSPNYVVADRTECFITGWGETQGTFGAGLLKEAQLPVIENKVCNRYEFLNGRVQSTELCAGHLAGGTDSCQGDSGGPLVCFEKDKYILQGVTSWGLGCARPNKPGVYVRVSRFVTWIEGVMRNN
# Sequence (P00747 97-580 limits assumed): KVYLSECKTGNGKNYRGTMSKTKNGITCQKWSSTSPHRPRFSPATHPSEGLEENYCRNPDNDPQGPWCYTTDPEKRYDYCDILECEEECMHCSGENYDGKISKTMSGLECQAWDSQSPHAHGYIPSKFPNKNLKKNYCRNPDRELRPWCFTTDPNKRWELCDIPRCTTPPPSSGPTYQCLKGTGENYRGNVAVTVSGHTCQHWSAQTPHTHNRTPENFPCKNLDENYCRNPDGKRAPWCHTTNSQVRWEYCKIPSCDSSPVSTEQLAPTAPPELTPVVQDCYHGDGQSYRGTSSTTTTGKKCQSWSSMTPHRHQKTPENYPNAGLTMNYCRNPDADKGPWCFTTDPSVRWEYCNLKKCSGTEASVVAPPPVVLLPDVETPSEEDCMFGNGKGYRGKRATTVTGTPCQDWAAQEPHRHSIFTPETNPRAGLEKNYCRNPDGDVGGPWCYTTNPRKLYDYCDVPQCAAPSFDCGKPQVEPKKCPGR
# test-method-notes: Antiplasmin activity: inhibition of S-2251 decomposition
# Assay type: biochemical
# condition-summary: Table 2; substrate S-2251, pH 7.4, 37° C.
Counter-ions that a name gives are not always drawn.
measurement-label: IC50 (µM)
All answers are understood in µM, so give the number only.

**Query** State the recorded IC50 for this entry: COCCCNC(=O)C(Cc1cccc(C(=O)c2ccccc2)c1)NC(=O)[C@H]1CC[C@H](CN)CC1 (stereo partly shown)
**Result** 750

**Query** State the recorded IC50 for this entry: NC[C@H]1CC[C@H](C(=O)NC(Cc2cccc(Oc3ccccc3)c2)C(=O)Nc2ccncn2)CC1 (mixture of isomers) [Compound 12, dihydrochloride]
**Result** 1000

**Query** State the recorded IC50 for this entry: N=C(N)c1ccc(NC(=O)C(Cc2cccc(Oc3ccccc3)c2)NC(=O)[C@H]2CC[C@H](CN)CC2)cc1 (mixture of isomers) [Compound 5, dihydrochloride]
**Result** 22

**Query** State the recorded IC50 for this entry: NC[C@H]1CC[C@H](C(=O)NC(Cc2cccc(Oc3ccccc3)c2)C(=O)N2CCC(C(=O)O)CC2)CC1 (stereo partly shown)
**Result** 1000

**Query** State the recorded IC50 for this entry: NC[C@H]1CC[C@H](C(=O)NC(Cc2cccc(Oc3ccccc3)c2)C(=O)Nc2ccccn2)CC1 (stereo partly shown)
**Result** 360

**Query** State the recorded IC50 for this entry: COCCCNC(=O)C(Cc1cccc(Oc2ccccc2)c1)NC(=O)[C@H]1CC[C@H](CN)CC1 (mixture of isomers) [Compound 14, hydrochloride]
**Result** 940

**Query** State the recorded IC50 for this entry: CCOC(=O)C(Cc1cccc(Oc2ccccc2)c1)NC(=O)[C@H]1CC[C@H](CN)CC1 (mixture of isomers) [Compound 57, hydrochloride]
**Result** 260

**Query** State the recorded IC50 for this entry: COCCCNC(=O)C(Cc1cccc(Oc2ccc(Br)cn2)c1)NC(=O)[C@H]1CC[C@H](CN)CC1 (mixture of isomers) [Compound 25, hydrochloride]
**Result** 490

**Query** State the recorded IC50 for this entry: NC[C@H]1CC[C@H](C(=O)NC(Cc2cccc(Oc3ccccc3)c2)C(=O)Nc2ncc[nH]2)CC1 (stereo partly shown)
**Result** 610

* * *

# system-under-test: human plasma kallikrein (Homo sapiens)
# test-method-notes: Anti-plasma kallikrein activity: inhibition of S-2302 decomposition
# Type: biochemical
measurement-label: pIC50
// pIC50 is dimensionless: -log10 of concentration (M)

**Query** State the recorded pIC50 for this entry: N=C(N)c1ccc2cc(OC(=O)c3ccc(N=C(N)N)cc3)ccc2c1 [FUT-175, reference compound]
**Result** 7.12

* * *

# system-under-test: human plasma kallikrein (Homo sapiens, UniProt P03952)
# Sequence (P03952 391-638 limits assumed): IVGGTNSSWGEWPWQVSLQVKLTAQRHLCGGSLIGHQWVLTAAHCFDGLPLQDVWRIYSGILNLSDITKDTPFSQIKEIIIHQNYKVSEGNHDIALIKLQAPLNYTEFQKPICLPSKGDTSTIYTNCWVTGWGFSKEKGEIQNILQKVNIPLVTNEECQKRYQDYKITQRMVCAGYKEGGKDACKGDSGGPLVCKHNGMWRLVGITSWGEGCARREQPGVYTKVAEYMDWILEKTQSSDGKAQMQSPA
# Sequence (P03952 20-390 limits assumed): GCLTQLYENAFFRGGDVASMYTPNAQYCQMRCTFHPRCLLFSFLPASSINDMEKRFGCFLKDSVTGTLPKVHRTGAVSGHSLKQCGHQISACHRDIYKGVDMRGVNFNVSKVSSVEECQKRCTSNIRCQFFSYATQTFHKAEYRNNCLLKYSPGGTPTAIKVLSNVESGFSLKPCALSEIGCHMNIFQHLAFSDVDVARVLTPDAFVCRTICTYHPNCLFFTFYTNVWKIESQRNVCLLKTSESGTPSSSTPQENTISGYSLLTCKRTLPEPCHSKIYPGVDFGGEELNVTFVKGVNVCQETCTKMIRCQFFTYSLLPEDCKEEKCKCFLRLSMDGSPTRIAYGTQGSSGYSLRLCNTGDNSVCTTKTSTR
# test-method-notes: Anti-plasma kallikrein activity: inhibition of S-2302 decomposition
# Format: biochemical
# condition-summary: Table 2; substrate S-2302, pH 7.8, 37° C.; read-out: Plasma Kallikrein S-2302 I50
Where a name gives a salt, the structure may show the parent alone.
Provide the reported IC50 of each item.

**Query** State the recorded IC50 for this entry: CCOC(=O)c1cccc(NC(=O)C(Cc2cccc(Oc3ccccc3)c2)NC(=O)c2ccc(NC(=N)N)cc2)c1 (stereo not drawn) [Compound 33]
**Result** 4.5 µM

**Query** State the recorded IC50 for this entry: CCOC(=O)C(Cc1cccc(Oc2ccccc2)c1)NC(=O)[C@H]1CC[C@H](CN)CC1 (mixture of isomers) [Compound 57, hydrochloride]
**Result** 5.7 µM

**Query** State the recorded IC50 for this entry: N=C(N)c1ccc(NC(=O)C(Cc2cccc(Oc3ccccc3)c2)NC(=O)[C@H]2CC[C@H](CN)CC2)cc1 (mixture of isomers) [Compound 5, dihydrochloride]
**Result** 8.7 µM

**Query** State the recorded IC50 for this entry: COCCCNC(=O)C(Cc1cccc(C(F)(F)F)c1)NC(=O)[C@H]1CC[C@H](CN)CC1 (stereo partly drawn) [Compound 28]
**Result** > 1000 µM

**Query** State the recorded IC50 for this entry: NC[C@H]1CC[C@H](C(=O)NC(Cc2cccc(OCc3ccccc3)c2)C(=O)Nc2cccnc2)CC1 (mixture of isomers) [Compound 22, dihydrochloride]
**Result** > 500 µM

**Query** State the recorded IC50 for this entry: N=C(N)Nc1ccc(C(=O)NC(Cc2cccc(Oc3ccccc3)c2)C(=O)N2CCC(C(=O)O)CC2)cc1 (racemic) [Compound 35]
**Result** > 500 µM

* * *

# system-under-test: bovine trypsin (Bos taurus, UniProt P00760)
# Sequence (P00760 24-246): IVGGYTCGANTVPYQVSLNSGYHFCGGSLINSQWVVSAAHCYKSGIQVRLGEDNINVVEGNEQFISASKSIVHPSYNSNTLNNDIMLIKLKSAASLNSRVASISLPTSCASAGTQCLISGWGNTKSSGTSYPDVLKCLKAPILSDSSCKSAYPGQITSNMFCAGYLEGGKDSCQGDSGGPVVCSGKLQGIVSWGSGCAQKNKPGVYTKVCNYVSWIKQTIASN
# test-method-notes: Antitrypsin activity: inhibition of S-2238 decomposition
# Type: biochemical
# condition-summary: Table 2; substrate S-2238, pH 8.1, 37° C.; read-out: Trypsin S-2238 I50
Where a name gives a salt, the structure may show the parent alone.
measurement-label: log10 IC50 (log10 of the value in µM)
Plainly stated, the numbers are log10 of IC50 given in µM.

**Query** State the recorded log10 IC50 for this entry: N=C(N)Nc1ccc(C(=O)NC(Cc2cccc(Oc3ccccc3)c2)C(=O)N2CCC(C(=O)O)CC2)cc1 (racemic)
**Result** 2.38

**Query** State the recorded log10 IC50 for this entry: NC[C@H]1CC[C@H](C(=O)NC(Cc2cccc(Oc3ccccc3)c2)C(=O)Nc2ccnc(Cl)c2)CC1 (mixture of isomers) [Compound 9, dihydrochloride]
**Result** 0.36

**Query** State the recorded log10 IC50 for this entry: CCOC(=O)C(Cc1cccc(Oc2ccccc2)c1)NC(=O)[C@H]1CC[C@H](CN)CC1 (mixture of isomers) [Compound 57, hydrochloride]
**Result** 1.40

**Query** State the recorded log10 IC50 for this entry: NC[C@H]1CC[C@H](C(=O)NC(Cc2cccc(Oc3ccccc3)c2)C(=O)Nc2ccncc2)CC1 (mixture of isomers) [Compound 8, dihydrochloride]
**Result** 0.94

**Query** State the recorded log10 IC50 for this entry: CC(=O)c1ccc(NC(=O)C(Cc2cccc(Oc3ccccc3)c2)NC(=O)[C@H]2CC[C@H](CN)CC2)cc1 (mixture of isomers) [Compound 2, hydrochloride]
**Result** 0.36

**Query** State the recorded log10 IC50 for this entry: N=C(N)c1ccc(NC(=O)C(Cc2cccc(Oc3ccccc3)c2)NC(=O)[C@H]2CC[C@H](CN)CC2)cc1 (mixture of isomers) [Compound 5, dihydrochloride]
**Result** 0.40

**Query** State the recorded log10 IC50 for this entry: COCCCNC(=O)C(Cc1cccc(Oc2ccccc2)c1)NC(=O)[C@H]1CC[C@H](CN)CC1 (mixture of isomers) [Compound 14, hydrochloride]
**Result** 2.00

**Query** State the recorded log10 IC50 for this entry: N=C(N)Nc1ccc(C(=O)NC(Cc2cccc(Oc3ccccc3)c2)C(=O)Nc2ccc(CC(=O)O)cc2)cc1 (racemic) [Compound 36, hydrochloride]
**Result** 1.23

**Query** State the recorded log10 IC50 for this entry: NC[C@H]1CC[C@H](C(=O)NC(Cc2cccc(Oc3ccccc3)c2)C(=O)Nc2ncc[nH]2)CC1 (stereo partly shown)
**Result** 1.83

**Query** State the recorded log10 IC50 for this entry: NC[C@H]1CC[C@H](C(=O)NC(Cc2cccc(Oc3ccccc3)c2)C(=O)Nc2cccnc2)CC1 (stereo partly shown)
**Result** 1.18

**Query** State the recorded log10 IC50 for this entry: CCOC(=O)c1cccc(NC(=O)C(Cc2cccc(Oc3ccccc3)c2)NC(=O)c2ccc(NC(=N)N)cc2)c1 (stereo not shown)
**Result** 1.62

* * *

# system-under-test: bovine thrombin (Bos taurus)
# Construct: a 0.2 unit/ml bovine thrombin solution
# test-method-notes: Antithrombin activity: inhibition of S-2238 decomposition
# Assay type: biochemical
# condition-summary: Table 2; substrate S-2238, pH 8.3, 37° C.; read-out: Thrombin S-2238 I50
Counter-ions that a name gives are not always drawn.
measurement-label: IC50

**Query** State the recorded IC50 for this entry: NC[C@H]1CC[C@H](C(=O)NC(Cc2cccc(Oc3ccccc3)c2)C(=O)Nc2ccncc2)CC1 (mixture of isomers) [Compound 8, dihydrochloride]
**Result** > 100 µM

**Query** State the recorded IC50 for this entry: NC[C@H]1CC[C@H](C(=O)NC(Cc2cccc(Oc3ccccc3)c2)C(=O)O)CC1 (mixture of isomers)
**Result** > 1000 µM

**Query** State the recorded IC50 for this entry: NC[C@H]1CC[C@H](C(=O)NC(Cc2cccc(Oc3ccccc3)c2)C(=O)Nc2ccnc(Cl)c2)CC1 (mixture of isomers) [Compound 9, dihydrochloride]
**Result** > 1000 µM

**Query** State the recorded IC50 for this entry: CC(=O)c1ccc(NC(=O)C(Cc2cccc(Oc3ccccc3)c2)NC(=O)[C@H]2CC[C@H](CN)CC2)cc1 (mixture of isomers) [Compound 2, hydrochloride]
**Result** > 100 µM

* * *

Provide the reported IC50 of each item.
# system-under-test: human urokinase (Homo sapiens, UniProt P00749)
# test-method-notes: biochemical
# condition-summary: Table 2; substrate S-2444, pH 8.8, 37° C.; read-out: Urokinase S-2444 I50
Structures can show the parent of a compound that is named as a salt.

**Query** State the recorded IC50 for this entry: CC(=O)c1ccc(NC(=O)C(Cc2cccc(Oc3ccccc3)c2)NC(=O)[C@H]2CC[C@H](CN)CC2)cc1 (mixture of isomers) [Compound 2, hydrochloride]
**Result** 110 µM

**Query** State the recorded IC50 for this entry: COCCCNC(=O)C(Cc1cccc(Oc2ccc(Br)cn2)c1)NC(=O)[C@H]1CC[C@H](CN)CC1 (mixture of isomers) [Compound 25, hydrochloride]
**Result** > 1000 µM

**Query** State the recorded IC50 for this entry: CCOC(=O)C1CCCCN1C(=O)C(Cc1cccc(Oc2ccc(Br)cn2)c1)NC(=O)[C@H]1CC[C@H](CN)CC1 (stereo partly shown)
**Result** > 1000 µM

**Query** State the recorded IC50 for this entry: NC[C@H]1CC[C@H](C(=O)NC(Cc2cccc(Oc3ccccc3)c2)C(=O)O)CC1 (mixture of isomers)
**Result** > 1000 µM

**Query** State the recorded IC50 for this entry: CCOC(=O)c1ccccc1NC(=O)C(Cc1cccc(Oc2ccccc2)c1)NC(=O)[C@H]1CC[C@H](CN)CC1 (mixture of isomers) [Compound 4, hydrochloride]
**Result** > 200 µM

**Query** State the recorded IC50 for this entry: NC[C@H]1CC[C@H](C(=O)NC(Cc2cccc(Oc3ccccc3)c2)C(=O)Nc2ccncn2)CC1 (mixture of isomers) [Compound 12, dihydrochloride]
**Result** > 1000 µM

**Query** State the recorded IC50 for this entry: CCOC(=O)C1CCN(C(=O)C(Cc2cccc(Oc3ccccc3)c2)NC(=O)c2ccc(NC(=N)N)cc2)CC1 (racemic)
**Result** > 200 µM

**Query** State the recorded IC50 for this entry: NC[C@H]1CC[C@H](C(=O)NC(Cc2cccc(Oc3ccccc3)c2)C(=O)Nc2ccccn2)CC1 (stereo partly shown)
**Result** > 500 µM

**Query** State the recorded IC50 for this entry: CCOC(=O)c1cccc(NC(=O)C(Cc2cccc(Oc3ccccc3)c2)NC(=O)[C@H]2CC[C@H](CN)CC2)c1 (stereo partly shown)
**Result** > 100 µM

**Query** State the recorded IC50 for this entry: NC[C@H]1CC[C@H](C(=O)NC(Cc2cccc(C(=O)c3ccccc3)c2)C(=O)N2CCOCC2)CC1 (stereo partly shown)
**Result** > 1000 µM

**Query** State the recorded IC50 for this entry: NC[C@H]1CC[C@H](C(=O)NC(Cc2cccc(C(F)(F)F)c2)C(=O)N2CCOCC2)CC1 (mixture of isomers) [Compound 29, hydrochloride]
**Result** > 1000 µM

**Query** State the recorded IC50 for this entry: NC[C@H]1CC[C@H](C(=O)NC(Cc2cccc(Oc3ccccc3)c2)C(N)=O)CC1 (mixture of isomers) [Compound 21, hydrochloride]
**Result** > 1000 µM

**Query** State the recorded IC50 for this entry: COCCCNC(=O)C(Cc1cccc(C(F)(F)F)c1)NC(=O)[C@H]1CC[C@H](CN)CC1 (stereo partly shown)
**Result** > 1000 µM

**Query** State the recorded IC50 for this entry: NC[C@H]1CC[C@H](C(=O)NC(Cc2cccc(Oc3ccc(Br)cn3)c2)C(=O)N2CCOCC2)CC1 (stereo partly shown)
**Result** > 1000 µM

**Query** State the recorded IC50 for this entry: COC(=O)[C@@H](C)NC(=O)C(Cc1cccc(Oc2ccccc2)c1)NC(=O)[C@H]1CC[C@H](CN)CC1 (stereo partly shown)
**Result** > 500 µM

**Query** State the recorded IC50 for this entry: CCOC(=O)c1cccc(NC(=O)C(Cc2cccc(Oc3ccccc3)c2)NC(=O)c2ccc(NC(=N)N)cc2)c1 (stereo not shown)
**Result** > 200 µM

**Query** State the recorded IC50 for this entry: CCOC(=O)C1CCN(C(=O)C(Cc2cccc(Oc3ccccc3)c2)NC(=O)[C@H]2CC[C@H](CN)CC2)CC1 (stereo partly shown)
**Result** > 1000 µM

**Query** State the recorded IC50 for this entry: NC[C@H]1CC[C@H](C(=O)NC(Cc2cccc(Oc3ccccc3)c2)C(=O)N2CCOCC2)CC1 (stereo partly shown)
**Result** > 1000 µM

**Query** State the recorded IC50 for this entry: CCOC(=O)C1CCN(C(=O)C(Cc2cccc(Oc3ccccc3)c2)NC(=O)[C@H]2CC[C@H](CNC(=N)N)CC2)CC1 (stereo partly shown)
**Result** > 500 µM

**Query** State the recorded IC50 for this entry: NC[C@H]1CC[C@H](C(=O)NC(Cc2cccc(Oc3ccccc3)c2)C(=O)Nc2ncc[nH]2)CC1 (stereo partly shown)
**Result** > 400 µM

**Query** State the recorded IC50 for this entry: COC(=O)[C@H]1CCCN1C(=O)C(Cc1cccc(Oc2ccccc2)c1)NC(=O)[C@H]1CC[C@H](CN)CC1 (stereo partly shown)
**Result** > 1000 µM

**Query** State the recorded IC50 for this entry: CC(=O)c1ccc(NC(=O)C(Cc2cccc(Oc3ccccc3)c2)NC(=O)c2ccc(NC(=N)N)cc2)cc1 (stereo not shown)
**Result** 100 µM

**Query** State the recorded IC50 for this entry: NC[C@H]1CC[C@H](C(=O)NC(Cc2cccc(Oc3ccccc3)c2)C(=O)Nc2nnn[nH]2)CC1 (stereo partly shown)
**Result** > 200 µM

**Query** State the recorded IC50 for this entry: NC[C@H]1CC[C@H](C(=O)NC(Cc2cccc(Oc3ccccc3)c2)C(=O)NCC(=O)c2ccccc2)CC1 (stereo partly shown)
**Result** > 100 µM

**Query** State the recorded IC50 for this entry: COCCCNC(=O)C(Cc1cccc(Oc2ccccc2)c1)NC(=O)[C@H]1CC[C@H](CN)CC1 (mixture of isomers) [Compound 14, hydrochloride]
**Result** > 500 µM
